Here the recorded mortality at 50 ppm is given for each entry.
Tested on: corn planthopper (Peregrinus maidis (Ashmead))
Assay: Test C: control of corn planthopper through contact and/or systemic means
Format: in vivo
Details: Peregrinus maidis, 144 h
Protocol: Formulation and Spray Methodology for Tests A-H Test compounds were formulated using a solution containing 10% acetone, 90% water and 300 ppm Activator 90® non-ionic surfactant (Loveland Products, Loveland, Colo., USA). The formulated compounds were applied in 1 mL of liquid through an atomizer nozzle positioned 1.27 cm (0.5 inches) above the top of each test unit. […] Test compounds were formulated and sprayed at 50 and 10 ppm. […] Each test unit was then visually assessed for insect mortality.
observable: mortality at 50 ppm

[[record]]
compound = "O=C(NC1CC1)c1ccc(C2=NOC(c3cc(Cl)cc(C(F)(F)F)c3)(C(F)(F)F)C2)c2ccncc12 (stereo not shown)"
experimental_result = "≥ 80%"

[[record]]
compound = "O=C(NCc1ncccn1)c1ccc(C2=NOC(c3cc(Cl)c(F)c(Cl)c3)(C(F)(F)F)C2)c2ccncc12 (stereo not shown)"
experimental_result = "≥ 80%"

[[record]]
compound = "COC(=O)[C@@H](C)NC(=O)c1ccc(C2=NOC(c3cc(Cl)c(F)c(Cl)c3)(C(F)(F)F)C2)c2ccncc12 (stereo partly shown)"
experimental_result = "≥ 80%"

[[record]]
compound = "C#CCNC(=O)c1ccc(C2=NOC(c3cc(Cl)c(F)c(Cl)c3)(C(F)(F)F)C2)c2ccncc12 (stereo not shown)"
experimental_result = "≥ 80%"

